FYI, the data here is from ChEMBL document CHEMBL1157526.

Tested on: Stomach
measurement.notes: Biodistribution in ddY mouse stomach at 0.5 uCi, iv after 10 mins
Assay type: ADME, organism-based
study.conditions: in vivo
measured.quantity: Drug uptake (% ID/organ)

CNc1ccc(-c2nc(-c3ccc([125I])cc3)no2)cc1    2.32
COc1ccc(-c2nc(-c3ccc([125I])cc3)no2)cc1    1.64

[1] CN(C)c1ccc(-c2nc(-c3ccc([125I])cc3)no2)cc1
[2] Nc1ccc(-c2nc(-c3ccc([125I])cc3)no2)cc1
Prompt: When the recorded Drug uptake values are compared, which is smaller: that of 1 or that of 2 ? When you have decided, please share the label of that item.
Response: 2
(2: 1.7 % ID/organ, 1: 3.28 % ID/organ)

---

Tested on: Pancreas
measurement.notes: Biodistribution in ddY mouse pancreas at 0.5 uCi, iv after 60 mins
Assay type: ADME, organism-based
study.conditions: in vivo, 1 h
measured.quantity: Drug uptake (% ID/g)

Sample records with Drug uptake:
COc1ccc(-c2nc(-c3ccc([125I])cc3)no2)cc1    1.45
CN(C)c1ccc(-c2nc(-c3ccc([125I])cc3)no2)cc1    2.47

[A] CNc1ccc(-c2nc(-c3ccc([125I])cc3)no2)cc1
[B] Nc1ccc(-c2nc(-c3ccc([125I])cc3)no2)cc1
Prompt: Drug uptake comparison. Which is larger, A or B ? When you have decided, please share the label of that item.
Response: B

---

Test system: Spleen
measurement.notes: Biodistribution in ddY mouse spleen at 0.5 uCi, iv after 60 mins
Format: ADME, organism-based
study.conditions: in vivo, 1 h
measured.quantity: Drug uptake (% ID/g)

CNc1ccc(-c2nc(-c3ccc([125I])cc3)no2)cc1    2.14

[A] CN(C)c1ccc(-c2nc(-c3ccc([125I])cc3)no2)cc1
[B] Nc1ccc(-c2nc(-c3ccc([125I])cc3)no2)cc1
[C] COc1ccc(-c2nc(-c3ccc([125I])cc3)no2)cc1
Prompt: Returns the items ordered by Drug uptake, from maximum to minimum. Return the labels ranked in the requested order, please.
Response: B, A, C
